Hi there, I'd appreciate the recorded IC50 of cytotoxicity, Colo205 cells (CellTiter-GLO, 4 days) for every entry that follows.
- target_system: CD63 on cells (human) (UniProt P08962)
- Sequence (P08962 2-238): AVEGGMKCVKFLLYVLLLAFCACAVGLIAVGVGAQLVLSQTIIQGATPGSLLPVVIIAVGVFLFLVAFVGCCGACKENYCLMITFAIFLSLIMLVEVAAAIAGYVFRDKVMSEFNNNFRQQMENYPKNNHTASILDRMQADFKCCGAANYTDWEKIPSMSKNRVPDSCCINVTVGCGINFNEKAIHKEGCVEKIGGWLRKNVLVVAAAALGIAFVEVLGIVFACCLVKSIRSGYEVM
- test_details: cell-based or functional assay
Respond numerically; units are µg/mL and should not be typed.

Prompt: Retrieve IC50 of cytotoxicity, Colo205 cells (CellTiter-GLO, 4 days) measured for bsHER2xCD63-Duo3 with CD63 variant T71H (bispecific antibody, part only; not given: HER2 arm (IgG1-153) VH and VL, V domains shown, part only) VH: EVQLQQSGPELVKPGASVKMSCKASGYTFTSYVMHWVRQTPGQGLEWIGYIHPYNDGTKYNEKFKGKATLTSDKSSSTAYMELSSLTSEDSAVYYCVGGDNYYYAMDYWGQGTSVTVSAA VL: NIMVTQSPSSLAVSAGEKVTMSCKSSQSVLYSSNQKNYLAWYQQKPGQSPKLLIYWASTRVSGVPDRFTGSGSGTDFTLTISRVQAEDLAVYYCHQYFSSFTFGSGTKLEIKRT and print it.
Completion: 2.23

Prompt: Retrieve IC50 of cytotoxicity, Colo205 cells (CellTiter-GLO, 4 days) measured for bsHER2xCD63-Duo3 with CD63 variant P72H (bispecific antibody, part only; not given: HER2 arm (IgG1-153) VH and VL, V domains shown, part only) VH: EVQLQQSGPELVKPGASVKMSCKASGYTFTSYVMHWVRQTPGQGLEWIGYITHYNDGTKYNEKFKGKATLTSDKSSSTAYMELSSLTSEDSAVYYCVGGDNYYYAMDYWGQGTSVTVSAA VL: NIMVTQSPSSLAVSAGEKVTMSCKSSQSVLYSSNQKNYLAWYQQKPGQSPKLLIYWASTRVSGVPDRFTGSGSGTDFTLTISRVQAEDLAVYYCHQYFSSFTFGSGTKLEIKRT and print it.
Completion: 1.4

Prompt: Retrieve IC50 of cytotoxicity, Colo205 cells (CellTiter-GLO, 4 days) measured for bsCD63xb12-Duo3 with CD63 variant Y79H (bispecific antibody, part only; not given: b12 control arm, V domains shown, part only) VH: EVQLQQSGPELVKPGASVKMSCKASGYTFTSYVMHWVRQTPGQGLEWIGYITPYNDGTKHNEKFKGKATLTSDKSSSTAYMELSSLTSEDSAVYYCVGGDNYYYAMDYWGQGTSVTVSAA VL: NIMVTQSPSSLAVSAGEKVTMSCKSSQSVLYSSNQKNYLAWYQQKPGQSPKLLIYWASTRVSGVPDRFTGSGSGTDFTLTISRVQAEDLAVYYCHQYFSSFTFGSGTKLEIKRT and print it.
Completion: 3.41

Prompt: Retrieve IC50 of cytotoxicity, Colo205 cells (CellTiter-GLO, 4 days) measured for bsCD63xb12-Duo3 with CD63 variant G76H (bispecific antibody, part only; not given: b12 control arm VH and VL, V domains shown, part only) VH: EVQLQQSGPELVKPGASVKMSCKASGYTFTSYVMHWVRQTPGQGLEWIGYITPYNDHTKYNEKFKGKATLTSDKSSSTAYMELSSLTSEDSAVYYCVGGDNYYYAMDYWGQGTSVTVSAA VL: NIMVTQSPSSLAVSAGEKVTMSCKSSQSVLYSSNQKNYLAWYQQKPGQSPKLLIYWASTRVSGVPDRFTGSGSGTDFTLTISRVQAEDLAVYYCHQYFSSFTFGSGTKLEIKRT and print it.
Completion: 1.42
